Data origin, for the record: PubChem BioAssay AID1918991

- Test system: 186277-243-T-J2-PDC complex spheroid growth
- PROTOCOL: Anticancer human tumor 186277-243-T-J2-PDC patient-derived colon adenocarcinoma cell line growth inhibition [AhR]; active = viability on the fitted dose curve at most 10% of control; inactive = the rest
- CONDITION DETAILS: second compound 1 µM; first compound 3.16 µM
Result category, one only: active, inactive

1) NS(=O)(=O)OCC1CC(n2ccc3c(NC4CCc5ccccc54)ncnc32)CC1O (centres undefined) + CC(CO)NC(=O)c1cc(-c2ccc(Cl)cc2)nn(-c2cnn(C)c2)c1=O ... active

Incoming: Recorded call for CC1COCCN1c1cc(C2(S(C)(=N)=O)CC2)nc(-c2ccnc3[nH]ccc23)n1 (centres undefined) + Cc1cncc(-c2nc(NCCc3c[nH]c4ccccc34)c3ncn(C(C)C)c3n2)c1 ?
Outgoing: inactive

Incoming: Which result was noted for this molecule in the test: O=C(c1cc(Cc2n[nH]c(=O)c3ccccc23)ccc1F)N1CCN(C(=O)C2CC2)CC1 + Cc1cncc(-c2nc(NCCc3c[nH]c4ccccc34)c3ncn(C(C)C)c3n2)c1
Outgoing: inactive

Incoming: Please indicate how the test categorized CC1(C)CCC(CN2CCN(c3ccc(C(=O)NS(=O)(=O)c4ccc(NCC5CCOCC5)c([N+](=O)[O-])c4)c(Oc4cnc5[nH]ccc5c4)c3)CC2)=C(c2ccc(Cl)cc2)C1 + CC(CO)NC(=O)c1cc(-c2ccc(Cl)cc2)nn(-c2cnn(C)c2)c1=O .
Outgoing: inactive

----------
- Tested on: 186277-243-T-J2-PDC complex spheroid growth
- PROTOCOL: Anticancer human tumor 186277-243-T-J2-PDC cell line growth inhibition [AhR]; active means viability on the fitted dose curve at most 10% of control; inactive means the rest;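 note: luminescent signal used as a stand-in for viable cell amount; spheroids exposed to compounds for seven days before the viability read; 100% = DMSO vehicle control wells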
- CONDITION DETAILS: second compound 3.16 µM; first compound 1 µM
Outcomes you can answer with include only these: active, inactive

These recorded examples may help you get a feel for the data.
1) Nc1ccn(C2OC(CO)C(O)C2(F)F)c(=O)n1 (stereo unspecified) + Cc1cncc(-c2nc(NCCc3c[nH]c4ccccc34)c3ncn(C(C)C)c3n2)c1 ... active
2) COc1cc(C2c3cc4c(cc3C(OC3OC5COC(C)OC5C(O)C3O)C3COC(=O)C23)OCO4)cc(OC)c1O (stereo unspecified) + CC(CO)NC(=O)c1cc(-c2ccc(Cl)cc2)nn(-c2cnn(C)c2)c1=O ... inactive
3) Nc1ccccc1NC(=O)c1ccc(CNC(=O)OCc2cccnc2)cc1 + Cc1cncc(-c2nc(NCCc3c[nH]c4ccccc34)c3ncn(C(C)C)c3n2)c1 ... inactive
4) O=C(c1cc(Cc2n[nH]c(=O)c3ccccc23)ccc1F)N1CCN(C(=O)C2CC2)CC1 + Cc1cncc(-c2nc(NCCc3c[nH]c4ccccc34)c3ncn(C(C)C)c3n2)c1 ... inactive
5) Nc1ccn(C2OC(CO)C(O)C2(F)F)c(=O)n1 (stereo unspecified) + Cc1ccccc1N=Nc1ccc(NC(=O)c2ccnn2C)c(C)c1 ... inactive

Incoming: Tell me the recorded outcome of this test for O=C(c1cc(Cc2n[nH]c(=O)c3ccccc23)ccc1F)N1CCN(C(=O)C2CC2)CC1 + Cc1ccccc1N=Nc1ccc(NC(=O)c2ccnn2C)c(C)c1 .
Outgoing: inactive

Incoming: Record request — test call for Nc1ncn(C2CC(O)C(CO)O2)c(=O)n1 (stereo unspecified) + CC(CO)NC(=O)c1cc(-c2ccc(Cl)cc2)nn(-c2cnn(C)c2)c1=O
Outgoing: inactive

Incoming: Please state the recorded outcome for this compound: NS(=O)(=O)OCC1CC(n2ccc3c(NC4CCc5ccccc54)ncnc32)CC1O (stereo unspecified) + Cc1cncc(-c2nc(NCCc3c[nH]c4ccccc34)c3ncn(C(C)C)c3n2)c1
Outgoing: inactive

Incoming: Could you check what this test reported for CC1COCCN1c1cc(-c2ccnn2C)c2ccnc(-c3ccn[nH]3)c2n1 (stereo unspecified) + Cc1ccccc1N=Nc1ccc(NC(=O)c2ccnn2C)c(C)c1 ?
Outgoing: active

Incoming: Name the outcome recorded for CC1COCCN1c1cc(-c2ccnn2C)c2ccnc(-c3ccn[nH]3)c2n1 (stereo unspecified) + CC(CO)NC(=O)c1cc(-c2ccc(Cl)cc2)nn(-c2cnn(C)c2)c1=O in the assay.
Outgoing: active

Incoming: # lookup: test call for COc1cccc2c1C(=O)c1c(O)c3c(c(O)c1C2=O)CC(O)(C(=O)CO)CC3OC1CC(N)C(O)C(C)O1 (stereo unspecified) + Cc1ccccc1N=Nc1ccc(NC(=O)c2ccnn2C)c(C)c1
Outgoing: active

----------
- Tested on: 186277-243-T-J2-PDC complex spheroid growth
- PROTOCOL: Anticancer human tumor 186277-243-T-J2-PDC cell line growth inhibition [AhR]; active = viability on the fitted dose curve at most 10% of control; inactive = the rest;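 note: luminescent signal used as a stand-in for viable cell amount; spheroids exposed to compounds for seven days before the viability read; 100% = DMSO vehicle control wells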
- CONDITION DETAILS: second compound 1 µM; first compound 3.16 µM
Parameter call: string, one of active, inactive

1) NS(=O)(=O)OCC1CC(n2ccc3c(NC4CCc5ccccc54)ncnc32)CC1O (stereo not drawn) + Cc1cncc(-c2nc(NCCc3c[nH]c4ccccc34)c3ncn(C(C)C)c3n2)c1 ... active
2) COc1cc(Nc2ncc3c(n2)-c2ccc(Cl)cc2C(c2c(F)cccc2OC)=NC3)ccc1C(=O)O + Cc1ccccc1N=Nc1ccc(NC(=O)c2ccnn2C)c(C)c1 ... inactive

# evaluate next
Incoming: Could you please tell me the result logged for Nc1ccn(C2OC(CO)C(O)C2(F)F)c(=O)n1 (stereo not drawn) + CC(CO)NC(=O)c1cc(-c2ccc(Cl)cc2)nn(-c2cnn(C)c2)c1=O in this assay?
Outgoing: active

----------
viability, T/C values by entry
- Test system: 186277-243-T-J2-PDC complex spheroid growth
- PROTOCOL: Anticancer human tumor 186277-243-T-J2-PDC cell line growth inhibition [AhR];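 note: luminescent signal used as a stand-in for viable cell amount; spheroids exposed to compounds for seven days before the viability read; 100% = DMSO vehicle control wells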
- CONDITION DETAILS: second compound 1 µM; first compound 1 µM; hits give low values
The reply should be a number in %, with the unit left off.

Incoming: Requested read-out: viability, T/C. Entry: O=C(C=Cc1cccc(S(=O)(=O)Nc2ccccc2)c1)NO + Cc1cncc(-c2nc(NCCc3c[nH]c4ccccc34)c3ncn(C(C)C)c3n2)c1
Outgoing: 42.2

Incoming: Item CC1COCCN1c1cc(C2(S(C)(=N)=O)CC2)nc(-c2ccnc3[nH]ccc23)n1 (stereo not drawn) + CC(CO)NC(=O)c1cc(-c2ccc(Cl)cc2)nn(-c2cnn(C)c2)c1=O has what recorded viability, T/C?
Outgoing: 41.1

Incoming: Please give the measured viability, T/C for this compound: Nc1ccccc1NC(=O)c1ccc(CNC(=O)OCc2cccnc2)cc1 + Cc1ccccc1N=Nc1ccc(NC(=O)c2ccnn2C)c(C)c1
Outgoing: 91.4

----------
The entries below are paired with their reported viability, T/C.
- Tested on: 186277-243-T-J2-PDC complex spheroid growth
- PROTOCOL: Anticancer human tumor 186277-243-T-J2-PDC cell line growth inhibition [AhR];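 note: luminescent signal used as a stand-in for viable cell amount; spheroids exposed to compounds for seven days before the viability read; 100% = DMSO vehicle control wells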
- CONDITION DETAILS: second compound 10 µM; first compound 0.1 µM; hits give low values
Numbers only here, please. The scale is %.

1) Nc1ccn(C2OC(CO)C(O)C2(F)F)c(=O)n1 (stereo not drawn) + Cc1ccccc1N=Nc1ccc(NC(=O)c2ccnn2C)c(C)c1 ... 15.9
2) Nc1ncn(C2CC(O)C(CO)O2)c(=O)n1 (stereo not drawn) + Cc1cncc(-c2nc(NCCc3c[nH]c4ccccc34)c3ncn(C(C)C)c3n2)c1 ... 46.6
3) COc1cc(C2c3cc4c(cc3C(OC3OC5COC(C)OC5C(O)C3O)C3COC(=O)C23)OCO4)cc(OC)c1O (stereo not drawn) + Cc1cncc(-c2nc(NCCc3c[nH]c4ccccc34)c3ncn(C(C)C)c3n2)c1 ... 44.5
4) CC[C@@]1(O)C(=O)OCc2c1cc1n(c2=O)Cc2cc3c(CN(C)C)c(O)ccc3nc2-1 + CC(CO)NC(=O)c1cc(-c2ccc(Cl)cc2)nn(-c2cnn(C)c2)c1=O ... 24.1
5) NS(=O)(=O)OCC1CC(n2ccc3c(NC4CCc5ccccc54)ncnc32)CC1O (stereo not drawn) + Cc1cncc(-c2nc(NCCc3c[nH]c4ccccc34)c3ncn(C(C)C)c3n2)c1 ... 24.4
6) Nc1ccccc1NC(=O)c1ccc(CNC(=O)OCc2cccnc2)cc1 + Cc1ccccc1N=Nc1ccc(NC(=O)c2ccnn2C)c(C)c1 ... 94.2
7) CC[C@@]1(O)C(=O)OCc2c1cc1n(c2=O)Cc2cc3c(CN(C)C)c(O)ccc3nc2-1 + Cc1ccccc1N=Nc1ccc(NC(=O)c2ccnn2C)c(C)c1 ... 99.3
8) CC(C)c1c(-c2ccccc2)nc2c(C#N)c[nH]n2c1=O + CC(CO)NC(=O)c1cc(-c2ccc(Cl)cc2)nn(-c2cnn(C)c2)c1=O ... 85.1

Incoming: I am curious: what viability, T/C value has been reported for COc1cc(Nc2ncc3c(n2)-c2ccc(Cl)cc2C(c2c(F)cccc2OC)=NC3)ccc1C(=O)O + CC(CO)NC(=O)c1cc(-c2ccc(Cl)cc2)nn(-c2cnn(C)c2)c1=O ?
Outgoing: 22.3

Incoming: Given the compound O=C(c1cc(Cc2n[nH]c(=O)c3ccccc23)ccc1F)N1CCN(C(=O)C2CC2)CC1 + Cc1cncc(-c2nc(NCCc3c[nH]c4ccccc34)c3ncn(C(C)C)c3n2)c1 , what is its reported viability, T/C?
Outgoing: 44.3

Incoming: Which value of viability, T/C has been reported for CC1COCCN1c1cc(C2(S(C)(=N)=O)CC2)nc(-c2ccnc3[nH]ccc23)n1 (stereo not drawn) + CC(CO)NC(=O)c1cc(-c2ccc(Cl)cc2)nn(-c2cnn(C)c2)c1=O in the records?
Outgoing: 75.9

Incoming: Requested read-out: viability, T/C. Entry: Nc1ccccc1NC(=O)c1ccc(CNC(=O)OCc2cccnc2)cc1 + Cc1cncc(-c2nc(NCCc3c[nH]c4ccccc34)c3ncn(C(C)C)c3n2)c1
Outgoing: 36.9

Incoming: Recorded viability, T/C of COc1ccc([C@@H](O)c2cc(-c3ncnc4cc(N5CCOCC5)ccc34)c(F)cc2Cl)nn1 + Cc1cncc(-c2nc(NCCc3c[nH]c4ccccc34)c3ncn(C(C)C)c3n2)c1 , please.
Outgoing: 21.7

Incoming: So what does the record say about viability, T/C for CC1(C)CCC(CN2CCN(c3ccc(C(=O)NS(=O)(=O)c4ccc(NCC5CCOCC5)c([N+](=O)[O-])c4)c(Oc4cnc5[nH]ccc5c4)c3)CC2)=C(c2ccc(Cl)cc2)C1 + CC(CO)NC(=O)c1cc(-c2ccc(Cl)cc2)nn(-c2cnn(C)c2)c1=O ?
Outgoing: 96.7

Incoming: Could you share which viability, T/C value was measured for CC1COCCN1c1cc(-c2ccnn2C)c2ccnc(-c3ccn[nH]3)c2n1 (stereo not drawn) + Cc1cncc(-c2nc(NCCc3c[nH]c4ccccc34)c3ncn(C(C)C)c3n2)c1 ?
Outgoing: 6.13

Incoming: Fill in the blank: the reported viability, T/C of COc1cccc2c1C(=O)c1c(O)c3c(c(O)c1C2=O)CC(O)(C(=O)CO)CC3OC1CC(N)C(O)C(C)O1 (stereo not drawn) + Cc1cncc(-c2nc(NCCc3c[nH]c4ccccc34)c3ncn(C(C)C)c3n2)c1 is ____.
Outgoing: 18.5

Incoming: Quick check: viability, T/C of COc1cccc2c1C(=O)c1c(O)c3c(c(O)c1C2=O)CC(O)(C(=O)CO)CC3OC1CC(N)C(O)C(C)O1 (stereo not drawn) + CC(CO)NC(=O)c1cc(-c2ccc(Cl)cc2)nn(-c2cnn(C)c2)c1=O ?
Outgoing: 24.3

Incoming: Can you share its viability, T/C? I mean this compound: O=C(c1cc(Cc2n[nH]c(=O)c3ccccc23)ccc1F)N1CCN(C(=O)C2CC2)CC1 + CC(CO)NC(=O)c1cc(-c2ccc(Cl)cc2)nn(-c2cnn(C)c2)c1=O
Outgoing: 86.3
